// pIC50 lookup, one value per entry
# SYSTEM UNDER TEST: CDK7/CycH/MNAT1 (Homo sapiens)
# Construct: His; purchased Invitrogen PR6749B
# Sequence (P50613 whole entry): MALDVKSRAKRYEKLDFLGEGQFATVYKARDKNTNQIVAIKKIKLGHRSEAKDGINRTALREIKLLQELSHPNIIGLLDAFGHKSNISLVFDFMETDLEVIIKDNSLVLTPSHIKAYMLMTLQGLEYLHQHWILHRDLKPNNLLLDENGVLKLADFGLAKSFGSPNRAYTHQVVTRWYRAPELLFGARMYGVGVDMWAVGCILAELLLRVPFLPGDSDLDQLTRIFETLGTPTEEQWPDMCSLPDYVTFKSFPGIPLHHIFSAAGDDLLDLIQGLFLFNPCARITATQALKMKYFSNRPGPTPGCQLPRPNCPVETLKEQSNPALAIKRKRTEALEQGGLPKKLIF
# Sequence (P51946 whole entry partner): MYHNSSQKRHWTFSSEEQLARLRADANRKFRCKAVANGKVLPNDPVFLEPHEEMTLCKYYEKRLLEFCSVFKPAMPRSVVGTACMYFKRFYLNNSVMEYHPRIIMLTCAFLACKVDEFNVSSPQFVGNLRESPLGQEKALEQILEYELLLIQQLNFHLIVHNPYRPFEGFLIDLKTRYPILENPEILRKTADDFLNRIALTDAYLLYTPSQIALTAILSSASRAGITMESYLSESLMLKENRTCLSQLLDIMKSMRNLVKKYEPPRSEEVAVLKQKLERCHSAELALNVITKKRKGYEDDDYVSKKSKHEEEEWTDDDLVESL
# Sequence (P51948 whole entry partner): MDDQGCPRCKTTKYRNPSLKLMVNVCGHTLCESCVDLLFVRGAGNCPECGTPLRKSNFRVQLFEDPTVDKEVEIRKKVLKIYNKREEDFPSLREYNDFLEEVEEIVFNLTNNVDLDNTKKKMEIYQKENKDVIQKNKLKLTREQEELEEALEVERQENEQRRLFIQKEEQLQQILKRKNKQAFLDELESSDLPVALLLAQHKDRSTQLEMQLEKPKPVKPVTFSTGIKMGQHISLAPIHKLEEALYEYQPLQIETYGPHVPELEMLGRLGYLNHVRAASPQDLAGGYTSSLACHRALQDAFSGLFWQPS
# TEST SUMMARY: Binding assay (FRET, LanthaScreen Eu, Tracer236) for CDK7
# TEST CONTEXT: read-out: CDK7 IC50 (enzyme binding assay)
pIC50: −log10 of the molar value.

{"MOLECULE": "CN[C@@H](C)C(=O)N[C@H](C(=O)N1CCC[C@H]1c1nc(C(=O)c2cccc(OCCOCCOCCNc3ccc4c(-c5ccccc5CNc5nc(O[C@@H]6CCCNC6)nc6c(C(C)C)cnn56)nccc4c3)c2)cs1)C1CCCCC1 [Compound 18]", "SYSTEM UNDER TEST": "CDK7/CycH/MNAT1 (Homo sapiens)", "pIC50": "≥ 7.00"}
{"MOLECULE": "Cc1ncsc1-c1ccc([C@H](C)NC(=O)[C@@H]2C[C@@H](O)CN2C(=O)[C@@H](NC(=O)CCOCCOCCNc2ccc3c(-c4ccccc4CNc4nc(O[C@@H]5CCCNC5)nc5c(C(C)C)cnn45)nccc3c2)C(C)(C)C)cc1 [Compound 17]", "SYSTEM UNDER TEST": "CDK7/CycH/MNAT1 (Homo sapiens)", "pIC50": "≥ 7.00"}
{"MOLECULE": "CC(C)c1cnn2c(NCc3ccccc3-c3nccc4cc(N5CCN(CC6CCN(c7cc8c(cc7F)C(=O)N(C7CCC(=O)NC7=O)C8=O)CC6)CC5)ccc34)nc(O[C@@H]3CCCNC3)nc12 (stereo partly shown) [Compound 35]", "SYSTEM UNDER TEST": "CDK7/CycH/MNAT1 (Homo sapiens)", "pIC50": "6.00 to 7.00"}
{"MOLECULE": "Cc1ncsc1-c1ccc(CNC(=O)[C@@H]2C[C@@H](O)CN2C(=O)[C@@H](NC(=O)C2(F)CC2)C(C)(C)C)c(OCCOCCOCCOCCOCCNc2ccc3c(-c4ccccc4CNc4nc(O[C@@H]5CCCNC5)nc5c(C(C)C)cnn45)nccc3c2)c1 [Compound 21]", "SYSTEM UNDER TEST": "CDK7/CycH/MNAT1 (Homo sapiens)", "pIC50": "≥ 7.00"}

====

# SYSTEM UNDER TEST: CDK7/CycH/MNAT1 (Homo sapiens)
# Construct: His
# TEST SUMMARY: Binding assay (FRET, LanthaScreen Eu, Tracer236) for CDK7
# TEST CONTEXT: read-out: CDK7 IC50 (enzyme binding assay)
# Description: Inhibition activity of compound to CDK7 kinase was tested in a binding assay which was applied to the FRET (fluorescence resonance energy transfer) principle from the europium (Eu) donor fluorophore to the acceptor fluorophore on the kinase tracer. […] The plate was incubated for 60 minutes at room temperature and then all the fluorescence were measured using Envision leader (Perkin Elmer, USA) [Laser as excitation light; […] as the first and the second emission filter]. […]
MEASUREMENT TYPE: IC50

{"COMPOUND": "Cc1ncsc1-c1ccc(CNC(=O)[C@@H]2C[C@@H](O)CN2C(=O)[C@@H](NC(=O)C2(F)CC2)C(C)(C)C)c(OCCOCCNc2ccc3c(-c4ccccc4CNc4nc(O[C@@H]5CCCNC5)nc5c(C(C)C)cnn45)nccc3c2)c1", "MEASUREMENT TYPE": "IC50", "ENDPOINT RESULT": "≤ 100 nM"}
{"COMPOUND": "CC(C)c1cnn2c(NCc3ccccc3-c3nccc4cc(N5CCN(CC6CCN(c7ccc8c(c7)C(=O)N(C7CCC(=O)NC7=O)C8=O)CC6)CC5)ccc34)nc(O[C@@H]3CCCNC3)nc12 (stereo partly drawn)", "MEASUREMENT TYPE": "IC50", "ENDPOINT RESULT": "≤ 100 nM"}
{"COMPOUND": "CC(C)c1cnn2c(NCc3ccccc3-c3nccc4cc(NCCOCCOCCNC(=O)CNc5cccc6c5C(=O)N(C5CCC(=O)NC5=O)C6=O)ccc34)nc(O[C@@H]3CCCNC3)nc12 (stereo partly drawn)", "MEASUREMENT TYPE": "IC50", "ENDPOINT RESULT": "≤ 100 nM"}
{"COMPOUND": "Cc1ncsc1-c1ccc([C@H](C)NC(=O)[C@@H]2C[C@@H](O)CN2C(=O)[C@@H](NC(=O)CCOCCOCCOCCNc2ccc3c(-c4ccccc4CNc4nc(O[C@@H]5CCCNC5)nc5c(C(C)C)cnn45)nccc3c2)C(C)(C)C)cc1", "MEASUREMENT TYPE": "IC50", "ENDPOINT RESULT": "≤ 100 nM"}
{"COMPOUND": "CC(C)c1cnn2c(NCc3ccccc3-c3nccc4cc(N5CCC(CN6CCN(c7ccc8c(c7)C(=O)N(C7CCC(=O)NC7=O)C8=O)CC6)CC5)ccc34)nc(O[C@@H]3CCCNC3)nc12 (stereo partly drawn)", "MEASUREMENT TYPE": "IC50", "ENDPOINT RESULT": "≤ 100 nM"}
{"COMPOUND": "C=C(F)C(=O)Nc1ccc2c(-c3ccccc3CNc3nc(NC[C@H]4CCN(CCOCCOCCNC(=O)CNc5cccc6c5C(=O)N(C5CCC(=O)NC5=O)C6=O)C[C@@H]4O)nc4c(C(C)C)cnn34)nccc2c1 (stereo partly drawn)", "MEASUREMENT TYPE": "IC50", "ENDPOINT RESULT": "100 to 1000 nM"}
{"COMPOUND": "CC(C)c1cnn2c(NCc3ccccc3-c3nccc4cc(NCCOCCOCCOCCNC(=O)CNc5cccc6c5C(=O)N(C5CCC(=O)NC5=O)C6=O)ccc34)nc(O[C@@H]3CCCNC3)nc12 (stereo partly drawn)", "MEASUREMENT TYPE": "IC50", "ENDPOINT RESULT": "≤ 100 nM"}
{"COMPOUND": "CC(C)c1cnn2c(NCc3ccccc3-c3nccc4cc(NC(=O)COCCOCCOCCNC(=O)CNc5cccc6c5C(=O)N(C5CCC(=O)NC5=O)C6=O)ccc34)nc(O[C@@H]3CCCNC3)nc12 (stereo partly drawn)", "MEASUREMENT TYPE": "IC50", "ENDPOINT RESULT": "≤ 100 nM"}
{"COMPOUND": "CC(C)c1cnn2c(NCc3ccccc3-c3nccc4cc(NCC5CCN(CC6CCN(c7ccc8c(c7)C(=O)N(C7CCC(=O)NC7=O)C8=O)CC6)CC5)ccc34)nc(N[C@@H]3CCCNC3)nc12 (stereo partly drawn)", "MEASUREMENT TYPE": "IC50", "ENDPOINT RESULT": "≤ 100 nM"}

Where do these numbers come from? They come from patent US20240343732A1.
